Reference for the values: patent US7767659B2

System: LoVo
Test: cells
Conditions: Homo sapiens, LoVo, 48 h, read-out: LOVO GI50
Procedure: This form of the assay employs 96 well cell culture microplates of 9 mm diameter (Faircloth, 1988; Mosmann, 1983). Most of the cell lines are obtained from American Type Culture Collection (ATCC) derived from different human cancer types. […] The values for mean +/− SD of data from triplicate wells are calculated. Some parameters for cellular responses can be calculated: GI=growth inhibition, TGI=total growth inhibition (cytostatic effect) and LC=cell killing (cytotoxic effect).
So I've got a bunch of compounds here, and I need their GI50 values.
Report only the number, with the unit nM understood.

Record COc1c(C)cc2c(c1O)[C@H]1N[C@@H](C2)[C@H](O)N2C1[C@@H]1SC[C@]3(NCCc4c3[nH]c3ccccc43)C(=O)OC[C@H]2c2c3c(c(C)c(OC(C)=O)c21)OCO3 (stereo partly shown) [compound 63] ; system LoVo; GI50 = 8.63

Record COc1cc2c(cc1O)CCN[C@]21CS[C@@H]2c3c(OC(=O)/C=C/c4ccccc4)c(C)c4c(c3[C@H](COC1=O)N1C2[C@@H]2N[C@@H](Cc3cc(C)c(OC)c(O)c32)[C@@H]1C#N)OCO4 (stereo partly shown) [compound 51] ; system LoVo; GI50 = 3.93

Record CCC(=O)NC1CS[C@@H]2c3c(OC(C)=O)c(C)c4c(c3[C@H](COC1=O)N1C2[C@@H]2N[C@@H](Cc3cc(C)c(OC)c(O)c32)[C@@H]1C#N)OCO4 (stereo partly shown) [compound 33] ; system LoVo; GI50 = 19.9

Record C=CCN1[C@@H]2c3c(cc(C)c(OC)c3O)C[C@H]1[C@H](C#N)N1C2[C@@H]2SC[C@]3(NCCc4c3[nH]c3ccc(C)cc43)C(=O)OC[C@H]1c1c3c(c(C)c(OC(C)=O)c12)OCO3 (stereo partly shown) [compound 58] ; system LoVo; GI50 = 139

Record C=CCN1[C@@H]2c3c(cc(C)c(OC)c3O)C[C@H]1[C@H](C#N)N1C2[C@@H]2SC[C@]3(NCCc4cc(O)c(OC)cc43)C(=O)OC[C@H]1c1c3c(c(C)c(OC(=O)/C=C/c4ccccc4)c12)OCO3 (stereo partly shown) [compound 49] ; system LoVo; GI50 = 250

Record COc1ccc2[nH]c3c(c2c1)CCN[C@]31CS[C@@H]2c3c(OC(C)=O)c(C)c4c(c3[C@H](COC1=O)N1C2[C@@H]2N[C@@H](Cc3cc(C)c(OC)c(O)c32)[C@@H]1C#N)OCO4 (stereo partly shown) [compound 60] ; system LoVo; GI50 = 3.27

Record COc1ccc2[nH]c3c(c2c1)CCN[C@]31CS[C@@H]2c3c(OC(C)=O)c(C)c4c(c3[C@H](COC1=O)N1C2[C@@H]2N[C@@H](Cc3cc(C)c(OC)c(O)c32)[C@@H]1O)OCO4 (stereo partly shown) [compound 64] ; system LoVo; GI50 = 4.15

Record COc1c(C)cc2c(c1O)[C@H]1N[C@@H](C2)[C@H](C#N)N2C1[C@@H]1SC[C@]3(NCCc4c3[nH]c3ccc(C)cc43)C(=O)OC[C@H]2c2c3c(c(C)c(OC(C)=O)c21)OCO3 (stereo partly shown) [compound 62] ; system LoVo; GI50 = 5.03

Record COc1cc2c(cc1O)CCN[C@]21CS[C@@H]2c3c(OC(C)=O)c(C)c4c(c3[C@H](COC1=O)N1C2C2c3c(cc(C)c(OC)c3O)C[C@@H]([C@@H]1C#N)N2C)OCO4 (stereo partly shown) [Et-770] ; system LoVo; GI50 = 3.09

Record COc1cc2c(cc1O)CCN[C@]21CS[C@@H]2c3c(OC(C)=O)c(C)c4c(c3[C@H](CNC1=O)N1C2[C@H]2c3c(cc(C)c(OC)c3O)CC([C@@H]1O)N2C)OCO4 (stereo partly shown) [compound 77] ; system LoVo; GI50 = 241

====

Test system: LNCaP
Experiment: Inhibition of cells growth by colorimetric assay (SRB)
Conditions: Homo sapiens, LNCaP, 48 h, read-out: LNCAP GI50
Protocol: This form of the assay employs 96 well cell culture microplates of 9 mm diameter (Faircloth, 1988; Mosmann, 1983). Most of the cell lines are obtained from American Type Culture Collection (ATCC) derived from different human cancer types. […] The values for mean +/− SD of data from triplicate wells are calculated. Some parameters for cellular responses can be calculated: GI=growth inhibition, TGI=total growth inhibition (cytostatic effect) and LC=cell killing (cytotoxic effect).
So I've got a bunch of compounds here, and I need their GI50 values.
Report only the number, with the unit nM understood.

Form field GI50, entry CCCCCCCC(=O)Oc1c(C)c2c(c3c1[C@H]1SC[C@]4(NCCc5cc(O)c(OC)cc54)C(=O)OC[C@@H]3N3C1[C@@H]1N[C@@H](Cc4cc(C)c(OC)c(O)c41)[C@@H]3O)OCO2 (some centres unmarked) : 7.42

Form field GI50, entry COc1c(C)cc2c(c1O)[C@H]1N[C@@H](C2)[C@H](C#N)N2C1[C@@H]1SC[C@]3(NCCc4c3[nH]c3ccccc43)C(=O)OC[C@H]2c2c3c(c(C)c(OC(C)=O)c21)OCO3 (some centres unmarked) : 1.03

Form field GI50, entry C=CCN1[C@@H]2c3c(cc(C)c(OC)c3O)C[C@H]1[C@H](C#N)N1C2[C@@H]2SC[C@]3(NCCc4cc(OC(=O)OC(C)(C)C)c(OC)cc43)C(=O)OC[C@H]1c1c3c(c(C)c(OC(=O)/C=C/c4ccccc4)c12)OCO3 (some centres unmarked) : 449

Form field GI50, entry COc1cc2c(cc1O)CCN[C@]21CS[C@@H]2c3c(OC(C)=O)c(C)c4c(c3[C@H](CNC1=O)N1C2[C@H]2c3c(cc(C)c(OC)c3O)C[C@@H]([C@@H]1C#N)N2C)OCO4 (some centres unmarked) : 46.6

Form field GI50, entry COc1c(C)cc2c(c1O)[C@H]1N[C@@H](C2)[C@H](C#N)N2C1[C@@H]1SC[C@]3(NCCc4c3[nH]c3ccc(C)cc43)C(=O)OC[C@H]2c2c3c(c(C)c(OC(C)=O)c21)OCO3 (some centres unmarked) : 3.01

====

Test system: PANC-1
Test: Inhibition of cells growth by colorimetric assay (SRB)
Settings: Homo sapiens, PANC-1, 48 h, read-out: PANC-1 LC50
So I've got a bunch of compounds here, and I need their CC50 values.
Report only the number, with the unit µM understood.

Form field CC50, entry C=CCN1[C@@H]2c3c(cc(C)c(OC)c3O)C[C@H]1[C@H](C#N)N1C2[C@@H]2SC[C@]3(NCCc4cc(OC(=O)OC(C)(C)C)c(OC)cc43)C(=O)OC[C@H]1c1c3c(c(C)c(O)c12)OCO3 (stereo partly shown) : 11.7

Form field CC50, entry COc1cc2c(cc1O)CCN[C@]21CS[C@@H]2c3c(OC(C)=O)c(C)c4c(c3[C@H](COC1=O)N1C2C2c3c(cc(C)c(OC)c3O)C[C@@H]([C@@H]1C#N)N2C)OCO4 (stereo partly shown) : 13

Form field CC50, entry COc1c(C)cc2c(c1O)[C@H]1N[C@@H](C2)[C@H](C#N)N2C1[C@@H]1SC[C@]3(NCCc4c3[nH]c3ccc(C)cc43)C(=O)OC[C@H]2c2c3c(c(C)c(OC(C)=O)c21)OCO3 (stereo partly shown) : 4.75

Form field CC50, entry COc1c(C)cc2c(c1O)[C@H]1N[C@@H](C2)[C@H](C#N)N2C1[C@@H]1SC[C@]3(NCCc4c3[nH]c3ccccc43)C(=O)OC[C@H]2c2c3c(c(C)c(OC(C)=O)c21)OCO3 (stereo partly shown) : 3.75

Form field CC50, entry COc1cc2c(cc1O)CCN[C@]21CS[C@@H]2c3c(O)c(C)c4c(c3[C@H](COC1=O)N1C2[C@@H]2N[C@@H](Cc3cc(C)c(OC)c(O)c32)[C@@H]1O)OCO4 (stereo partly shown) : 2.07

Form field CC50, entry COc1cc2c(cc1O)CCN[C@]21CS[C@@H]2c3c(OC(C)=O)c(C)c4c(c3[C@H](CNC1=O)N1C2[C@H]2c3c(cc(C)c(OC)c3O)CC([C@@H]1O)N2C)OCO4 (stereo partly shown) : 13.1

Form field CC50, entry C=CCN1[C@@H]2c3c(cc(C)c(OC)c3O)C[C@H]1[C@H](C#N)N1C2[C@@H]2SC[C@]3(NCCc4c3[nH]c3ccc(O)cc43)C(=O)OC[C@H]1c1c3c(c(C)c(OC(C)=O)c12)OCO3 (stereo partly shown) : 12.2

Form field CC50, entry COc1c(C)cc2c(c1OC(=O)/C=C/c1ccccc1)[C@H]1N[C@@H](C2)[C@H](C#N)N2C1[C@@H]1SCC(NC(=O)C(F)(F)F)C(=O)OC[C@H]2c2c3c(c(C)c(OC(C)=O)c21)OCO3 (stereo partly shown) : 0.841

Form field CC50, entry COc1cc2c(cc1O)CCN[C@]21CS[C@@H]2c3c(OC(C)=O)c(C)c4c(c3[C@H](COC1=O)N1C[C@@H]3Cc5cc(C)c(OC)c(O)c5C(C21)N3C)OCO4 (stereo partly shown) : 13.4

Form field CC50, entry COc1c(C)cc2c(c1OC(=O)/C=C/c1ccccc1)[C@H]1N[C@@H](C2)[C@H](O)N2C1[C@@H]1SCC(NC(=O)C(F)(F)F)C(=O)OC[C@H]2c2c3c(c(C)c(OC(C)=O)c21)OCO3 (stereo partly shown) : 2.57
